- Assay overview: Plasma pharmacokinetics in rats after i.v. and i.g. dosing (UPLC-FLR)
- Format: in vivo, Sprague Dawley rats
- Condition set: both sexes, Sprague Dawley, plasma, po; rat, 20 mg/kg i.g., mean ± SD, n = 6
Assay endpoint: AUC(0-t) (ng·h/mL)
Enter your answer as a number in ng·h/mL; do not include the unit.

Quick one: give measured AUC(0-t) for CC[C@@]12CC(C(=O)OC)=C3Nc4cc5c(cc4[C@@]34CCN(C[C@H]3O[C@H]31)[C@@H]24)[C@@H]1C(O5)[C@@H](O)[C@@]2(CC)CC(C(=O)OC)=C3Nc4cc(OC)ccc4[C@@]34CCN1[C@@H]24 (stereo partly shown) [10-dehydroxyl-12-demethoxy-conophylline, 10-Dehydroxyl-12-demethoxy-conophylline]
867

----------
- Assay overview: Plasma pharmacokinetics in rats after i.v. and i.g. dosing (UPLC-FLR)
- Format: in vivo, Sprague Dawley rats
- Condition set: both sexes, Sprague Dawley, plasma, iv; rat, 4 mg/kg i.v.
Assay endpoint: AUC(0-inf) (ng·h/mL)
Numbers only; they are read as ng·h/mL.

Read off the recorded AUC(0-inf) for CC[C@@]12CC(C(=O)OC)=C3Nc4cc5c(cc4[C@@]34CCN(C[C@H]3O[C@H]31)[C@@H]24)[C@@H]1C(O5)[C@@H](O)[C@@]2(CC)CC(C(=O)OC)=C3Nc4cc(OC)ccc4[C@@]34CCN1[C@@H]24 (stereo partly shown) [10-dehydroxyl-12-demethoxy-conophylline, 10-Dehydroxyl-12-demethoxy-conophylline]
1140

----------
- Assay overview: Plasma protein binding by equilibrium dialysis, human plasma
- Format: in vitro ADME
- Condition set: 5.00 µg/mL, read-out: protein binding degree (converted)
Assay endpoint: fraction unbound at 5 µg/mL
Lab note: record just the number, no unit beside it.

Write down fraction unbound at 5 µg/mL measured for item CC[C@@]12CC(C(=O)OC)=C3Nc4cc5c(cc4[C@@]34CCN(C[C@H]3O[C@H]31)[C@@H]24)[C@@H]1C(O5)[C@@H](O)[C@@]2(CC)CC(C(=O)OC)=C3Nc4cc(OC)ccc4[C@@]34CCN1[C@@H]24 (stereo partly shown) [10-dehydroxyl-12-demethoxy-conophylline, 10-Dehydroxyl-12-demethoxy-conophylline]
0.153

----------
- Assay overview: Plasma pharmacokinetics in rats after i.v. and i.g. dosing (UPLC-FLR)
- Format: in vivo, Sprague Dawley rats
- Condition set: both sexes, Sprague Dawley, rat, plasma, po, 20 mg/kg, 20 mg/kg i.g., mean ± SD, n = 6, read-out: t1/2β
Assay endpoint: half-life (h)
Write it as a number; the unit h goes unstated.

Supply measured half-life of CC[C@@]12CC(C(=O)OC)=C3Nc4cc5c(cc4[C@@]34CCN(C[C@H]3O[C@H]31)[C@@H]24)[C@@H]1C(O5)[C@@H](O)[C@@]2(CC)CC(C(=O)OC)=C3Nc4cc(OC)ccc4[C@@]34CCN1[C@@H]24 (stereo partly shown) [10-dehydroxyl-12-demethoxy-conophylline, 10-Dehydroxyl-12-demethoxy-conophylline] in your reply.
1.17

----------
- Assay overview: Plasma protein binding by equilibrium dialysis, rat plasma
- Type: in vitro ADME
- Condition set: Sprague Dawley, 2.50 µg/mL, equilibrium dialysis, read-out: protein binding degree (converted)
Assay endpoint: fraction unbound at 2.5 µg/mL

Consider the compound CC[C@@]12CC(C(=O)OC)=C3Nc4cc5c(cc4[C@@]34CCN(C[C@H]3O[C@H]31)[C@@H]24)[C@@H]1C(O5)[C@@H](O)[C@@]2(CC)CC(C(=O)OC)=C3Nc4cc(OC)ccc4[C@@]34CCN1[C@@H]24 (stereo partly shown) [10-dehydroxyl-12-demethoxy-conophylline, 10-Dehydroxyl-12-demethoxy-conophylline] and give its recorded fraction unbound at 2.5 µg/mL.
0.174
